# measurement-description: In-vivo pharmacokinetic parameters in mice
# Parameters: species or system Balb-c mice
# study-conditions: male, Balb-c, mouse, plasma, PO, 5 mg/kg
measured-parameter: AUC(0-t)
Note to self: number, then unit, no commentary.

chemical-structure: Cc1cccc([C@@H](CO)NC(=O)[C@@H](C)N2Cc3ccc(-c4nc(Nc5ccnn5C)ncc4Cl)c(F)c3C2=O)c1
AUC(0-t): 0.338 µM·h

For each listed entry, give its AUC(0-t).
1. COc1cc(F)cc([C@@H](CO)NC(=O)[C@@H](C)N2Cc3ccc(-c4nc(NC5CCOCC5)ncc4F)c(F)c3C2=O)c1
2. COc1cc(F)cc([C@@H](CO)NC(=O)[C@@H](C)N2Cc3ccc(-c4nc(NC5CCOCC5)ncc4Cl)nc3C2=O)c1

1: 1.08 µM·h; 2: 0.253 µM·h
